Catalogue of molecules with associated EC50
# TEST TARGET: Substance-K receptor (Rattus norvegicus, UniProt P16610)
# Sequence (P16610 whole entry): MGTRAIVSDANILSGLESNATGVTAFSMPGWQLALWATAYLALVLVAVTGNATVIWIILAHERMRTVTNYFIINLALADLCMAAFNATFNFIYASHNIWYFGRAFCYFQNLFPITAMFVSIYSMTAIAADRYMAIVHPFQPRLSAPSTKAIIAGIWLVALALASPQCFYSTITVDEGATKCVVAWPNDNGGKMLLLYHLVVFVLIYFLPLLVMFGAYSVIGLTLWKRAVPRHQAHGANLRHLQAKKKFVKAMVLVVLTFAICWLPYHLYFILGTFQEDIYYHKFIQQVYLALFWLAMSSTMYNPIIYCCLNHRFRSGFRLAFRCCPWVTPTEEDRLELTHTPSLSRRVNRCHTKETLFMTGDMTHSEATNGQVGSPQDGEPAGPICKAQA
# PROTOCOL NOTES: In vitro agonistic activity against tachykinin receptor 2 of rat colon muscularis mucosae.
Please give a number only; it is taken to be in nM.

// below: answered molecules
[[record]]
molecule = "CSCC[C@H](NC(=O)[C@H](CC(C)C)NC(=O)[C@H]1CCCN1C(=O)[C@H](Cc1ccccc1)NC(=O)[C@H](Cc1ccccc1)NC(=O)CCCCN)C(N)=O"
test_target = "Substance-K receptor (Rattus norvegicus, UniProt P16610)"
unit_of_measurement = "nM"
endpoint_value = 92

[[record]]
molecule = "CSCC[C@H](NC(=O)[C@H](CC(C)C)N1CCC(NC(=O)[C@H](Cc2ccccc2)NC(=O)[C@H](Cc2ccccc2)NC(=O)CCCCN)C1=O)C(N)=O (stereo not given in full)"
test_target = "Substance-K receptor (Rattus norvegicus, UniProt P16610)"
unit_of_measurement = "nM"
endpoint_value = 62

[[record]]
molecule = "CSCC[C@H](NC(=O)[C@H](CC(C)C)N1C[C@H]2CCN(C(=O)[C@H](Cc3ccccc3)NC(=O)[C@H](Cc3ccccc3)NC(=O)CCCCN)[C@H]2C1=O)C(N)=O"
test_target = "Substance-K receptor (Rattus norvegicus, UniProt P16610)"
unit_of_measurement = "nM"
endpoint_value = 15

[[record]]
molecule = "CSCC[C@H](NC(=O)[C@@H](CC(C)C)N1C[C@H]2CCN(C(=O)[C@H](Cc3ccccc3)NC(=O)[C@H](Cc3ccccc3)NC(=O)CCCCN)[C@H]2C1=O)C(N)=O"
test_target = "Substance-K receptor (Rattus norvegicus, UniProt P16610)"
unit_of_measurement = "nM"
endpoint_value = 2100


Q. Name the recorded EC50 for CSCC[C@H](NC(=O)[C@H](CC(C)C)N1CC2CCN(C(=O)[C@@H](NC(=O)[C@H](Cc3ccccc3)NC(=O)[C@H](CO)NC(=O)[C@H](CC(=O)O)NC(=O)[C@@H](N)CCCCN)C(C)C)C2C1=O)C(N)=O (stereo not given in full) .
A. 59
